These measurements were taken from ChEMBL document CHEMBL3994637.

Each entry below carries its reported IC50.
Tested on: Trichophyton mentagrophytes
MEASUREMENT DESCRIPTION: Anti-fungal activity against Trichophyton mentagrophytes after 48 hrs by broth microdilution method
Format: functional
The figure you give is taken to be in µg/mL; do not add the unit.

# example entries with known answers
SMILES NOTATION	EXPERIMENTAL SYSTEM	UNITS OF MEASURE	IC50
COC(=O)[C@H](C(C)C)n1sc2ccccc2c1=O	Trichophyton mentagrophytes	µg/mL	1.7
O=c1c2ccccc2sn1-c1ccccc1-n1sc2ccccc2c1=O	Trichophyton mentagrophytes	µg/mL	12.5
O=c1c2ccccc2sn1-c1ccccc1	Trichophyton mentagrophytes	µg/mL	0.7
O=c1c2ccccc2sn1C1CCCCC1	Trichophyton mentagrophytes	µg/mL	0.7
COC(=O)[C@H](CC(C)C)n1sc2ccccc2c1=O	Trichophyton mentagrophytes	µg/mL	6.2

Lab note: measured IC50 of COc1ccccc1-n1sc2ccccc2c1=O was 0.7

Lab note: measured IC50 of COC(=O)[C@H](C)n1sc2ccccc2c1=O was 11.4
